# experiment-summary: in vitro
# measurement-conditions: human, hela cells, % viability
quantity-name: viability at 28.5 h, 10 µM

What does the data say about its viability at 28.5 h, 10 µM? Entry: COc1ccc(CN2CCN(S(=O)(=O)c3ccc(Cl)cc3)CC2)cc1OC [CBK264204G]
104%

Try this compound next: Cc1ccc(S(=O)(=O)CCOc2nc3c(C(F)(F)F)cc(C4CC4)nc3o2)cc1
111%

Try this compound next: O=S(=O)(c1ccc(-c2ccccc2)cc1)N1CCCN(Cc2ccc(F)c(C(F)(F)F)c2)CC1
98.9%

Try this compound next: COc1ccc(C)cc1NS(=O)(=O)c1cc(I)c2occc2c1
72.6%

Try this compound next: CCn1cc(C2CN(S(=O)(=O)c3sc(C)nc3C)CCO2)cn1 (centres unmarked)
96.8%

Try this compound next: CN1CCCC1CNCc1cn(-c2ccccc2)nc1-c1cccnc1 (centres unmarked)
118%

Try this compound next: Cc1nc(NC(=O)c2cccc(NC(=O)C3CCCO3)c2)sc1-c1n[nH]c(=S)n1C (centres unmarked)
86.9%

Try this compound next: COc1ccc(C(=O)[C@H]2CCCN(C(=O)c3ccco3)C2)cc1
99.7%

Try this compound next: COc1ccc(Oc2nccnc2N2CCN(Cc3ccc4c(c3)OCO4)CC2)cc1OC [CBK083048T]
106%

Try this compound next: Cn1ccnc1C(NC(=O)C1CCCC1)c1ccc(F)c(F)c1 (centres unmarked)
97%

Try this compound next: O/N=C/c1c[nH]c2ccccc12
102%

Try this compound next: COCc1cn(C[C@H]2CC3CCN2C[C@@H]3C(=O)NC2CC2)nn1 (some centres unmarked)
98.6%

Try this compound next: O=C1NCCCC12CCN(Cc1cnc(N3CCOCC3)nc1)CC2
111%

Try this compound next: COc1cccc(NC(=O)NCCc2ccncc2)c1
90.3%

Try this compound next: CSc1ccccc1CNC(=O)Cn1nnc(-c2ccc(CN3CCC(C)CC3)cc2)n1 [CBK144573C]
93.2%

Try this compound next: CC1(C)CC(NC(=O)c2cccc([N+](=O)[O-])c2)CC(C)(C)N1 [CBK262952C]
99.8%

Try this compound next: COc1ccc(CCC(=O)N2CCCC2c2cc(Nc3nccs3)cc(C)n2)cc1 (centres unmarked)
90%

Try this compound next: O=C(NC1CCOCC1)c1n[nH]c2c1CCC2
113%

Try this compound next: Cc1cc(C)nc(N(C#N)CC(=O)N2c3ccccc3CCc3ccccc32)n1
112%

----------
# experiment-summary: in vitro
# measurement-conditions: human, hela cells, % viability
Some compounds, each annotated with its measured viability at 28.5 h, 10 µM.
Kindly format the answer as number then unit.

1) CCOc1ccc(NC(=O)C2C3c4ccccc4C(c4ccccc43)C2C(=O)O)cc1 (centres unmarked) ... 102%
2) CN1CCN(C(=O)c2[nH]c3ccccc3c2NS(=O)(=O)c2cccc3cccnc23)CC1 ... 87.2%
3) Cc1c(C(=O)C2=C(O)C(=O)N(CCCN(C)C)C2c2cccnc2)cnn1-c1ccccc1 (centres unmarked) ... 93.8%
4) COc1ccc(N(CC(=O)N2CCN(C)CC2)S(=O)(=O)c2ccc(C)c([N+](=O)[O-])c2)cc1 ... 89.8%
5) CN(C)c1cccc(Nc2ccc(-c3ccc(CCC(=O)O)cc3)cn2)c1 ... 97.2%
6) Nc1ncc(-c2ccc(OC(F)(F)F)cc2)c2cccnc12 ... 98.7%
7) Cn1cc(CNCC2CCN(c3ccccc3)C2)c(-c2ccncc2)n1 (centres unmarked) ... 94.3%

Switching to the query record.
What does the data say about its viability at 28.5 h, 10 µM? Entry: CCOc1ccc(/N=N\c2ccc(O)c(/C=N\Nc3ccc([N+](=O)[O-])cc3)c2)cc1
97.7%
